This collection of values is drawn from patent US20030229005A1.

# System Under Test: T1, human Gelatinase-A (human, UniProt P08253 110-660, limits assumed)
# T1 sequence (looked up): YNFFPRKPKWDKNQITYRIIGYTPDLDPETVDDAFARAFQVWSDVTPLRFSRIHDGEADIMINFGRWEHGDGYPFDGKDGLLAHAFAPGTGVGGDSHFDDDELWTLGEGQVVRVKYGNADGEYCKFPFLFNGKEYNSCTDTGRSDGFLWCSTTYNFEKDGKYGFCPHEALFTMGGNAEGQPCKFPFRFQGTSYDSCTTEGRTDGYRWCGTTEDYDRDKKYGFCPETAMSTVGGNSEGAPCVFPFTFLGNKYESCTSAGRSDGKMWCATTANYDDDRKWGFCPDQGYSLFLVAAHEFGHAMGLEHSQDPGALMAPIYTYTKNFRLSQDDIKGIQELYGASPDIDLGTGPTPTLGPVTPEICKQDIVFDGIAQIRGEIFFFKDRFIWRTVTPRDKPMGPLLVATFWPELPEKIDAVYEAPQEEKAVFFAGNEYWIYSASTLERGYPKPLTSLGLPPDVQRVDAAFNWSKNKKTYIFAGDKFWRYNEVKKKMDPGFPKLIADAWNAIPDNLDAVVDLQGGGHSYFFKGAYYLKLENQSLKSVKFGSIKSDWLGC
# Measurement Protocol: cell-based or functional assay
*1 amine or outer side, *2 acyl side, *3 side chain or, on linkers, in order; H or OH if unused. [ ]: non-standard residue; d: D form. The star is where a group is joined. Dnp = O=[N+]([O-])c1ccc(*)c([N+](=O)[O-])c1; C(Me) = CSC[C@H](N[*:1])C(=O)[*:2]
Binary classification by Selectivity v. Coll-3, with 10 unitless as an inclusive lower bound for condition met; all other cases are condition not met.

Completed entries (count: 4):
Binder	Qualitative Label
Dnp-GPLSISG-NH2 (SMILES CC[C@H](C)[C@H](NC(=O)[C@H](CO)NC(=O)[C@H](CC(C)C)NC(=O)[C@@H]1CCCN1C(=O)CNc1ccc([N+](=O)[O-])cc1[N+](=O)[O-])C(=O)N[C@@H](CO)C(=O)NCC(N)=O) [Dnp-GPLSISG-NH2]	condition not met
Dnp-VTPYNMRG-NH2 (SMILES CSCC[C@H](NC(=O)[C@H](CC(N)=O)NC(=O)[C@H](Cc1ccc(O)cc1)NC(=O)[C@@H]1CCCN1C(=O)[C@@H](NC(=O)[C@@H](Nc1ccc([N+](=O)[O-])cc1[N+](=O)[O-])C(C)C)[C@@H](C)O)C(=O)N[C@@H](CCCNC(=N)N)C(=O)NCC(N)=O) [Dnp-VTPYNMRG-NH2]	condition met
Dnp-GPAPFRG[C(Me)]-NH2 (SMILES CSC[C@H](NC(=O)CNC(=O)[C@H](CCCNC(=N)N)NC(=O)[C@H](Cc1ccccc1)NC(=O)[C@@H]1CCCN1C(=O)[C@H](C)NC(=O)[C@@H]1CCCN1C(=O)CNc1ccc([N+](=O)[O-])cc1[N+](=O)[O-])C(N)=O) [Dnp-GPAPFRGC(Me)-NH2]	condition not met
Dnp-PINLHG-NH2 (SMILES CC[C@H](C)[C@H](NC(=O)[C@@H]1CCCN1c1ccc([N+](=O)[O-])cc1[N+](=O)[O-])C(=O)N[C@@H](CC(N)=O)C(=O)N[C@@H](CC(C)C)C(=O)N[C@@H](Cc1c[nH]cn1)C(=O)NCC(N)=O) [Dnp-PINLHG-NH2]	condition not met

Then this binder:
Q: Would you say Dnp-GPLPFHV[C(Me)]-NH2 (SMILES CSC[C@H](NC(=O)[C@@H](NC(=O)[C@H](Cc1c[nH]cn1)NC(=O)[C@H](Cc1ccccc1)NC(=O)[C@@H]1CCCN1C(=O)[C@H](CC(C)C)NC(=O)[C@@H]1CCCN1C(=O)CNc1ccc([N+](=O)[O-])cc1[N+](=O)[O-])C(C)C)C(N)=O) [Dnp-GPLPFHVC(Me)-NH2] shows Selectivity v. Coll-3 at minimum 10 unitless?
A: condition met
